Source listed as ChEMBL document CHEMBL1140411.

Each item that follows carries a reported SI.
Target: dUTP pyrophosphatase (Plasmodium falciparum 3D7) (UniProt Q8II92)
Sequence (whole entry): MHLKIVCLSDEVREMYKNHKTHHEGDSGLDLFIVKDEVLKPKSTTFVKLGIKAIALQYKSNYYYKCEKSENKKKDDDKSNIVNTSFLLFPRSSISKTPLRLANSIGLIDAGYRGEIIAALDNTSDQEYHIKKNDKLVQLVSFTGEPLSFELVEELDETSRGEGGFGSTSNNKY
Assay: Selectivity index for Plasmodium falciparum deoxyuridine 5'-triphosphate nucleotidohydrolase defined as (Ki Human)/(Ki Plasmodium falciparum)

Before answering, review these 3 worked examples.
Compound: O=c1ccn(C2C=CC(CO[Si](c3ccccc3)(c3ccccc3)c3ccccc3)O2)c(=O)[nH]1 (stereo not given)
SI: > 769
--
Compound: CS(=O)(=O)NCC1OC(n2ccc(=O)[nH]c2=O)CC1O (stereo not given)
SI: > 5
--
Compound: O=c1ccn(C2CC(O)C(CNCc3ccccc3)O2)c(=O)[nH]1 (stereo not given)
SI: > 9

Look up and state reported SI for CCOP(=O)(OCC)OC[C@H]1O[C@@H](n2ccc(=O)[nH]c2=O)C[C@@H]1O
> 3

Dear colleague, please send me the reported SI for CC(C)[Si](OC[C@H]1O[C@@H](n2ccc(=O)[nH]c2=O)C[C@@H]1O)(C(C)C)C(C)C when you can.
> 4
